Every entry's value here was drawn from patent US10912814B2.

- run_description: Voxilaprevir Form VI single and multiple oral dose pharmacokinetics in healthy subjects
- Type: in vivo, human
- setup_conditions: human, plasma, oral, 100 mg, single dose 100 mg; mean

{"columns": ["molecule", "Cmax"],
 "data": [
  ["CC[C@@H]1[C@@H]2CN(C(=O)[C@H](C(C)(C)C)NC(=O)O[C@@H]3C[C@H]3CCCCC(F)(F)c3nc4ccc(OC)cc4nc3O2)[C@@H]1C(=O)N[C@]1(C(=O)NS(=O)(=O)C2(C)CC2)C[C@H]1C(F)F [voxilaprevir, Form VI]", "17.6 ng/mL"]
]}

* * *

- run_description: Voxilaprevir Form VI single and multiple oral dose pharmacokinetics in healthy subjects
- Assay type: in vivo, human
- setup_conditions: human, plasma, oral, 100 mg, single dose 100 mg; median; read-out: tmax
- Experimental: Pub. No. 2015/0175625 A1. Initial studies were conducted using the crystalline Form VI of voxilaprevir. As described previously, Form VI of voxilaprevir is characterized by an X-ray powder diffractogram comprising the following peaks (±0.2°): at 14.6, 15.4, and 20.0°2θ, as determined on a diffractometer using Cu-Kα radiation. Following single and multiple oral doses of voxilaprevir, Form VI, maximum plasma concentrations occurred between 2.0 and 5.0 hours (median tmax). […]

{"columns": ["compound", "unit_annotation", "Tmax"],
 "data": [
  ["CC[C@@H]1[C@@H]2CN(C(=O)[C@H](C(C)(C)C)NC(=O)O[C@@H]3C[C@H]3CCCCC(F)(F)c3nc4ccc(OC)cc4nc3O2)[C@@H]1C(=O)N[C@]1(C(=O)NS(=O)(=O)C2(C)CC2)C[C@H]1C(F)F [voxilaprevir, Form VI]", "h", 3]
]}

* * *

- run_description: Voxilaprevir Form VI single and multiple oral dose pharmacokinetics in healthy subjects
- Format: in vivo, human
- setup_conditions: human, plasma, oral; multiple dose 300 mg; mean
readout: AUC (ng·h/mL)

{"columns": ["molecule", "readout", "readout_number"],
 "data": [
  ["CC[C@@H]1[C@@H]2CN(C(=O)[C@H](C(C)(C)C)NC(=O)O[C@@H]3C[C@H]3CCCCC(F)(F)c3nc4ccc(OC)cc4nc3O2)[C@@H]1C(=O)N[C@]1(C(=O)NS(=O)(=O)C2(C)CC2)C[C@H]1C(F)F [voxilaprevir, Form VI]", "AUC", 1030]
]}
